Data credit: patent US20020142347A1

TARGET_UNDER_TEST: FACI53 (Bos taurus, UniProt P07107, A54C)
Construct: badan (6-bromoacetyl-2-dimethylaminonaphthalene) fluorophore on the introduced Cys-53; made in house; host or cells: E. coli BL21(DE3)pLysS, pET3a vector
Sequence (P07107 2-87 A54C): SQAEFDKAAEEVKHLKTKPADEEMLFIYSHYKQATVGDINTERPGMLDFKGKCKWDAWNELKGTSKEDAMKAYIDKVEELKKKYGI
PROCEDURE_TEXT: Fluorescence emission change of FACI-53 on titration with CoA and acyl-CoA esters
Format: binding, bovine
MEASUREMENT_SETUP: 525 nm when no ligand present; excitation 400 nm
QUANTITY_NAME: Fluorescence emission maximum of FACI-53 with ligand (nm)
Answers are plain numbers, in nm.

CCCC(=O)SCCNC(=O)CCNC(=O)[C@H](O)C(C)(C)COP(=O)(O)OP(=O)(O)OC[C@H]1O[C@@H](n2cnc3c(N)ncnc32)[C@H](O)[C@@H]1OP(=O)(O)O | 503

Hi team, please reply with Fluorescence emission maximum of FACI-53 with ligand for each item in this list.
1. CCCCCCCCCCCCCCCC(=O)SCCNC(=O)CCNC(=O)[C@H](O)C(C)(C)COP(=O)(O)OP(=O)(O)OC[C@H]1O[C@@H](n2cnc3c(N)ncnc32)[C@H](O)[C@@H]1OP(=O)(O)O
2. CCCCCCCC(=O)SCCNC(=O)CCNC(=O)[C@H](O)C(C)(C)COP(=O)(O)OP(=O)(O)OC[C@H]1O[C@@H](n2cnc3c(N)ncnc32)[C@H](O)[C@@H]1OP(=O)(O)O
3. CCCCCCCCCCCCCCCCCCCC(=O)SCCNC(=O)CCNC(=O)[C@H](O)C(C)(C)COP(=O)(O)OP(=O)(O)OC[C@H]1O[C@@H](n2cnc3c(N)ncnc32)[C@H](O)[C@@H]1OP(=O)(O)O
4. CCCCCCCCCCCC(=O)SCCNC(=O)CCNC(=O)[C@H](O)C(C)(C)COP(=O)(O)OP(=O)(O)OC[C@H]1O[C@@H](n2cnc3c(N)ncnc32)[C@H](O)[C@@H]1OP(=O)(O)O
5. CC(C)(COP(=O)(O)OP(=O)(O)OC[C@H]1O[C@@H](n2cnc3c(N)ncnc32)[C@H](O)[C@@H]1OP(=O)(O)O)[C@@H](O)C(=O)NCCC(=O)NCCS

1. 496
2. 490
3. 514
4. 492
5. 508
